Values from the supplement of paper PMC9170038

# System: MS2 coat protein
# method notes: apparent KD of MS2 coat protein; designed switch direction (-1 OFF switch, 1 ON switch): -1; higher = weaker reporter binding
# conditions used: input ligand: none

sequence content	units symbol	apparent KD of MS2 coat protein
UACACUGCAUGAGGAUCAAACAUGAGGAUCACCCAUGUGUAGCAAGCUUUUUGCUCGUCUUAUAAAUAUGUAGUGUA [Electric Eye 10 - Jieux - Sensor, turn-off variant 1] (Eterna round: R97, puzzle: Sensor, turn-off variant 1)	µM	0.0129
GGUUUGCGGCAGGAUAUCCAUCCGCGGUGUGGUGGAGAAGGGCUGACAUGAGGAUCACCCAUGUGCGUCCUGGU [salish99_ex6_r4_021] (Eterna round: R97, puzzle: Exclusion 6)	µM	0.0218
GUUAAUUGUGACAUGGGUGACAUGAGGAUCACCCAUGUCACAAGCUUUUUGUUCGUCUUAUAAUUAACCCAUGUCAC [Stov1/13-B2] (Eterna round: R97, puzzle: Sensor, turn-off variant 1)	µM	0.0948
UACUUCUGAGGAUAUACAUGAGGAUCACCCAUGUUGAUACCGACCUAAAGUCCAUUACGUAGAAGGCAGCAGUG [Eternabot (L1) Solution 91] (Eterna round: R97, puzzle: Exclusion 3)	µM	0.0236
